Values from ChEMBL document CHEMBL3124815

# SYSTEM_UNDER_TEST: Serine/threonine-protein kinase B-raf (Homo sapiens, UniProt P15056, V600E)
# Sequence (P15056 whole entry V600E): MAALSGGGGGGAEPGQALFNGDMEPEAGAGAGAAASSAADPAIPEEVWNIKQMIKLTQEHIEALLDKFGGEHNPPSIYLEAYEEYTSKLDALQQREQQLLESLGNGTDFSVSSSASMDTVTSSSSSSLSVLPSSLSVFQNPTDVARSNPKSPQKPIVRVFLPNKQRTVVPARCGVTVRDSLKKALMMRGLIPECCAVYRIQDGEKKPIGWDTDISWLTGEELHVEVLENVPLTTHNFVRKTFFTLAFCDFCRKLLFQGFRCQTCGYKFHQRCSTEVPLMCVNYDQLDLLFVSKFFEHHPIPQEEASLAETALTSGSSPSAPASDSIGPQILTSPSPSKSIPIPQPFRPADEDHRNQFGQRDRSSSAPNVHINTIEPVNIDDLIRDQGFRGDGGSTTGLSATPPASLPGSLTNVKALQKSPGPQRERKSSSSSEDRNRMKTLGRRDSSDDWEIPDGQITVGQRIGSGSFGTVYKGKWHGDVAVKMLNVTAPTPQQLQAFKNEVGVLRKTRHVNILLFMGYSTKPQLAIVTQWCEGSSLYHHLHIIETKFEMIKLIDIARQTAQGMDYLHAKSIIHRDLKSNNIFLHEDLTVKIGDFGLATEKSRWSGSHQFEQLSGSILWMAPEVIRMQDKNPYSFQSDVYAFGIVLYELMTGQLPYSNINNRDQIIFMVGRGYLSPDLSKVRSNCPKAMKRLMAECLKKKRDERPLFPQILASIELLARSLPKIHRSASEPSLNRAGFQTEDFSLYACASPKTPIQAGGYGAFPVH
MEASURED_QUANTITY: IC50 (nM)

>>> df
                               given_smiles  quantitative_result
0  N#Cc1c(Oc2ccc(F)c(NC(=O)Cc3cccc(C(F)(F)F)c3)c2)ccc2nc(NC(=O)C3CC3)sc12                   15

---

# SYSTEM_UNDER_TEST: Angiopoietin-1 receptor (Homo sapiens, UniProt Q02763)
# Sequence (Q02763 whole entry): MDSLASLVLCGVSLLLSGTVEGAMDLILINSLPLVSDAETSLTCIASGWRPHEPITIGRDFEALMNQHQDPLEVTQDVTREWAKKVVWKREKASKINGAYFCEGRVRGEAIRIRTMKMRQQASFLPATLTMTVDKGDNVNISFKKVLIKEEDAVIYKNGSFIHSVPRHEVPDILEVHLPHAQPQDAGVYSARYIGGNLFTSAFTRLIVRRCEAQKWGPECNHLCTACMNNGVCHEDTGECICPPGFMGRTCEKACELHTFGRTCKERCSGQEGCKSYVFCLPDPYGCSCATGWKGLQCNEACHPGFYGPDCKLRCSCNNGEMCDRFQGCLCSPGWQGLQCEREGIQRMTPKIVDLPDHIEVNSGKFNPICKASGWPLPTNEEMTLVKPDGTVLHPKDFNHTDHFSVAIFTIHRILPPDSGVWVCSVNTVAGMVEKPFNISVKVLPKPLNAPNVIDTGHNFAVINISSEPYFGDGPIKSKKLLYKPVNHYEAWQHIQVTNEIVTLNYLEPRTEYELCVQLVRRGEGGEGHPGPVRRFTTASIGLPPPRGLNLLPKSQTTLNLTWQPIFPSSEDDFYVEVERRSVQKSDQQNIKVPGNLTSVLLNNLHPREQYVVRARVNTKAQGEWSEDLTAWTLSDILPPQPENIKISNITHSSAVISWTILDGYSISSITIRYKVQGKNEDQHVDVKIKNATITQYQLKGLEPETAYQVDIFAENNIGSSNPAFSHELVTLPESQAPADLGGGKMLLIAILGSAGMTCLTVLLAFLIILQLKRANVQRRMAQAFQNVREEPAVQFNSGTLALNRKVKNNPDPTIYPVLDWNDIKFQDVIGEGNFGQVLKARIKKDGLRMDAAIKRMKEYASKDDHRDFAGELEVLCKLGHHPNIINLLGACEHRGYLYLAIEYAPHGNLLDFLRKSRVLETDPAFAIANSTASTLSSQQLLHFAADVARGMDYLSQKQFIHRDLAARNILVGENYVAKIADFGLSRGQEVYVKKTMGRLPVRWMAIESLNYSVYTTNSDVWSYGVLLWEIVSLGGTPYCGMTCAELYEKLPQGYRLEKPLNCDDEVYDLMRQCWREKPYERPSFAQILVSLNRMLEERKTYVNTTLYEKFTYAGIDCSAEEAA
# TEST_SUMMARY: Inhibition of TIE2 receptor (unknown origin) using biotinylated poly-Glu-Tyr (4:1) as substrate preincubated for 5 mins measured after 12 hrs
pIC50: −log10 of the molar value.
MEASURED_QUANTITY: pIC50

>>> df
                               given_smiles  measured_quantity  quantitative_result
0  N#Cc1c(Oc2ccc(F)c(NC(=O)Cc3cccc(C(F)(F)F)c3)c2)ccc2nc(NC(=O)C3CC3)sc12              pIC50                 6.13

---

# SYSTEM_UNDER_TEST: Receptor tyrosine-protein kinase erbB-2 (Homo sapiens, UniProt P04626)
# Sequence (P04626 whole entry): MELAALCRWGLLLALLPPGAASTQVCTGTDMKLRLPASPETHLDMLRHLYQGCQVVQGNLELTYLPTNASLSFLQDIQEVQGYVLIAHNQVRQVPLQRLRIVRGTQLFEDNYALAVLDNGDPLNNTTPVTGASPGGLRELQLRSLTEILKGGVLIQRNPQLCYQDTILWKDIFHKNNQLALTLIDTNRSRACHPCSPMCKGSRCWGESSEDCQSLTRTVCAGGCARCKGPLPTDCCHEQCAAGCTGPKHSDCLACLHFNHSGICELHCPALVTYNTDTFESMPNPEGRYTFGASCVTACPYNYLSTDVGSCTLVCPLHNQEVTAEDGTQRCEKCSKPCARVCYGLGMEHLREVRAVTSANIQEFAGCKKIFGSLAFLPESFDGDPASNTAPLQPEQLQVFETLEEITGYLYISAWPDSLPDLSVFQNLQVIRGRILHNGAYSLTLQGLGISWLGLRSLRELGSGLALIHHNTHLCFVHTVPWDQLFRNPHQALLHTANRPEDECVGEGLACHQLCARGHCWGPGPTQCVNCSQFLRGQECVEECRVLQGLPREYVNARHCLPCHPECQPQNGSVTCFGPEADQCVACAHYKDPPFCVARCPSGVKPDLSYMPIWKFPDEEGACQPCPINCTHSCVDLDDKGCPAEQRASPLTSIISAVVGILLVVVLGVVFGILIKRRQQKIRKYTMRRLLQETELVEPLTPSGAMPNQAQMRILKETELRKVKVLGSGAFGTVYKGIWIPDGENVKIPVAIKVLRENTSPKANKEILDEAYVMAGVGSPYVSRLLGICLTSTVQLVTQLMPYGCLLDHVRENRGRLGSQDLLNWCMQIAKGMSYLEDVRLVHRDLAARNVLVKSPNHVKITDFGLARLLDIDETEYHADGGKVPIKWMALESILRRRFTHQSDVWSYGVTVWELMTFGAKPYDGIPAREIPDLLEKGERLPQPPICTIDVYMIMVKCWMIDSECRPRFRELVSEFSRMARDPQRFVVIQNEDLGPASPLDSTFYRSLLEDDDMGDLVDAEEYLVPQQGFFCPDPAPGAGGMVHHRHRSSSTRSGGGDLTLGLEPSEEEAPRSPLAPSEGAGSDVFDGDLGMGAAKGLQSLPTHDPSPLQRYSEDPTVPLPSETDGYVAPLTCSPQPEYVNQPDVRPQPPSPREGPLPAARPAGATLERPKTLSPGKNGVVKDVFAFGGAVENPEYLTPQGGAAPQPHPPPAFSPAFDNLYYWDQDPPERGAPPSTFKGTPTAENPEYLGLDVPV
MEASURED_QUANTITY: IC50

>>> print(df.to_string())
                               given_smiles   result
0  N#Cc1c(Oc2ccc(F)c(NC(=O)Cc3cccc(C(F)(F)F)c3)c2)ccc2nc(NC(=O)C3CC3)sc12  > 10 µM

---

# SYSTEM_UNDER_TEST: Protein kinase C theta type (Homo sapiens)
MEASURED_QUANTITY: IC50

>>> print(df.to_string())
                               given_smiles   result
0  N#Cc1c(Oc2ccc(F)c(NC(=O)Cc3cccc(C(F)(F)F)c3)c2)ccc2nc(NC(=O)C3CC3)sc12  > 10 µM

---

# SYSTEM_UNDER_TEST: Vascular endothelial growth factor receptor 2 (Homo sapiens)
# Sequence (P35968 whole entry): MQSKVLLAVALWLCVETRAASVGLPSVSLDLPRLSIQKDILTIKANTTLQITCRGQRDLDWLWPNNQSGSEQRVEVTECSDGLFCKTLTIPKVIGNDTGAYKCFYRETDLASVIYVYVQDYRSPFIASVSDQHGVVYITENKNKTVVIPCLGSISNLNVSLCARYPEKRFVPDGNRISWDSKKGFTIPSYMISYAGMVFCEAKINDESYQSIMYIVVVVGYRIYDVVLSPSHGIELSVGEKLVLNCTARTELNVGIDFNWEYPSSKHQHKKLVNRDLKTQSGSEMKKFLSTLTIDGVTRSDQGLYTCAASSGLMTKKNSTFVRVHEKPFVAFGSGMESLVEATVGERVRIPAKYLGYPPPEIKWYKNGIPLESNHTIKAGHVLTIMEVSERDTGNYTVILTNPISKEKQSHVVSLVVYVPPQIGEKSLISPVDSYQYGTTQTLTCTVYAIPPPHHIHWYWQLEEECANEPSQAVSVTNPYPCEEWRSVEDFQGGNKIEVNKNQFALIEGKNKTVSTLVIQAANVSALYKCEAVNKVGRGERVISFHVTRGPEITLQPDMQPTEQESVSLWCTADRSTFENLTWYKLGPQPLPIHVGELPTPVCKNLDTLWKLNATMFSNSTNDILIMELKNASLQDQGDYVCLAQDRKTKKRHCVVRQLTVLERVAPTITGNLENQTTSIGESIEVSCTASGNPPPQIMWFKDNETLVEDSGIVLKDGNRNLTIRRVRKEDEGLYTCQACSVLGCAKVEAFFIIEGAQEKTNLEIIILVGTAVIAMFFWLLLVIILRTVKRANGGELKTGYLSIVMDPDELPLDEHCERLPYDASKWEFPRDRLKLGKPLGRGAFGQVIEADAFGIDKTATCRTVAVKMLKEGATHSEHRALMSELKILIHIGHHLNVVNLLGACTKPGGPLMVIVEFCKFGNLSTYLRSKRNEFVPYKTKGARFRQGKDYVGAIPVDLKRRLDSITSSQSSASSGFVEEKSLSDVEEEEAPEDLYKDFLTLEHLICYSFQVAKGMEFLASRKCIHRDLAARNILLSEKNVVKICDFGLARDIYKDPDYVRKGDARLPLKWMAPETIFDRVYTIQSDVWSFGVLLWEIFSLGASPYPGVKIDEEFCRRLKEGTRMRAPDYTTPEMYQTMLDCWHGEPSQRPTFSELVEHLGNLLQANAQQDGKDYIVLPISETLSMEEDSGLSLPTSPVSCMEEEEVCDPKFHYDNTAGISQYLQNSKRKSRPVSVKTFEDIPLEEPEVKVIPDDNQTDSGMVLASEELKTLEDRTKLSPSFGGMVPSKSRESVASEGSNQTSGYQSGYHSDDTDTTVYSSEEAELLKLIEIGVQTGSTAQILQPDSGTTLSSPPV
# TEST_SUMMARY: Inhibition of VEGFR2 (unknown origin) using biotinylated poly-GluTyr (4:1) as substrate pretreated for 5 mins before substrate addition measured after overnight incubation
MEASURED_QUANTITY: IC50 (nM)

In [3]: df
Out[3]:
                               given_smiles  measured_quantity  units_text  quantitative_result
0  N#Cc1c(Oc2cccc(NC(=O)Nc3cccc(C(F)(F)F)c3)c2)ccc2nc(NC(=O)C3CC3)sc12               IC50          nM                  350
1  CC(C)(C#N)c1cccc(C(=O)Nc2cccc(Oc3ccc4nc(NC(=O)C5CC5)sc4c3C(=O)O)c2)c1               IC50          nM                   15

---

# System: Mus musculus
# TEST_SUMMARY: AUC (0 to 8 hrs) in mouse at 10 mg/kg, po
# Type: ADME, organism-based, Blood
# Parameters: time < 8 hr, dose 10 mg/kg, route oral
# CONDITION_DETAILS: in vivo
This section presents compounds with their documented AUC values.
MEASURED_QUANTITY: AUC (ng·h/mL)

                               given_smiles  system_under_test  units_text  quantitative_result
0  N#Cc1c(Oc2cccc(NC(=O)Cc3cccc(C(F)(F)F)c3)c2)ccc2nc(NC(=O)C3CC3)sc12       Mus musculus     ng·h/mL                 3780
1  N#Cc1c(Oc2cccc(NC(=O)Cc3ccccc3C(F)(F)F)c2)ccc2nc(NC(=O)C3CC3)sc12       Mus musculus     ng·h/mL                  255
2  N#Cc1c(Oc2cccc(NC(=O)Nc3ccccc3C(F)(F)F)c2)ccc2nc(NC(=O)C3CC3)sc12       Mus musculus     ng·h/mL                   58
3  N#Cc1c(Oc2cccc(NC(=O)Nc3cccc(C(F)(F)F)c3)c2)ccc2nc(NC(=O)C3CC3)sc12       Mus musculus     ng·h/mL                   99
4  N#Cc1c(Oc2ccc(F)c(NC(=O)Nc3ccc(C(F)(F)F)cc3)c2)ccc2nc(NC(=O)C3CC3)sc12       Mus musculus     ng·h/mL                  158
5  N#Cc1c(Oc2cccc(NC(=O)Nc3ccc(C(F)(F)F)cc3)c2)ccc2nc(NC(=O)C3CC3)sc12       Mus musculus     ng·h/mL                  431
6  CC(C)(C#N)c1cccc(C(=O)Nc2cccc(Oc3ccc4nc(NC(=O)C5CC5)sc4c3C#N)c2)c1       Mus musculus     ng·h/mL                  149
7  N#Cc1c(Oc2ccc(F)c(NC(=O)Cc3cccc(C(F)(F)F)c3)c2)ccc2nc(NC(=O)C3CC3)sc12       Mus musculus     ng·h/mL                 2480
8  N#Cc1c(Oc2cccc(NC(=O)Cc3ccc(C(F)(F)F)cc3)c2)ccc2nc(NC(=O)C3CC3)sc12       Mus musculus     ng·h/mL                  123
